assay.system: pda8d
assay.summary: sedimentation equilibrium, monomer-dimer-tetramer model; monomer-to-dimer self-association
measurement.name: Kd

Could you tell me which Kd is on file for KPYTARIKGRTFSNEKELRDFLETFTGR (modifications not checked) [pda8d] ?
500 to 1500 µM
